- Tested System: pmGGG (Zif268-C7 finger 2 variant) finger 2 helix -2 to 6 = SRSDKLVR in Zif268-C7 (synthetic)
- Assay Overview: EMSA
- Experimental Parameters: [7-9,26-28]
Assay Readout: pKd
Would you please state pKd, meaning minus log10 of the concentration in mol/L, as a bare number?

Prompt: Fill in the blank: the reported pKd of GGACGCCCCCGCGGGTTTTCCCGCGGGGGCGTCC [F2 site GGG] is ____.
Completion: 8.22

* * *

# reported Kd; entries follow
- Test system: E2C(Zif) six-finger (synthetic)
- Assay Overview: EMSA
The response must be a number in nM with no trailing unit.

{"Sequence Data": "GGGGCCGGAAGTCTGAATG (double strand) [e2c-muths2]", "Kd / nM": 200}
{"Sequence Data": "GGGGCCGGAGCCGCAGTGA (double strand) [e2c-a]", "Kd / nM": 2.3}
{"Sequence Data": "GGGGCCGGAGCCGCAGTGG (double strand) [e2c-g]", "Kd / nM": 1.6}

Prompt: For the record AGTCTGAATGCCGCAGTGG (double strand) [e2c-muths1] , what value of Kd is listed for E2C(Zif) six-finger (synthetic)?
Completion: 200

* * *

- Tested System: pGTA (Zif268-C7 finger 2 variant) finger 2 helix -2 to 6 = SQSSSLVR in Zif268-C7 (synthetic) (UniProt P08046)
- Assay Overview: EMSA
- Experimental Parameters: [none]
Assay Readout: Kd (nM)
Reply with just the number (in nM).

Prompt: Look up Kd: GGACGCTACCGCGGGTTTTCCCGCGGTAGCGTCC [F2 site GTA]
Completion: 25

* * *

- System: B3(F2) three-finger protein (synthetic)
- Assay Overview: EMSA
Assay Readout: Kd (nM)
Numeric answer only, unit nM assumed.

Prompt: For GGAGGGGAGG (double strand) [b3] , what is its reported Kd?
Completion: 4

* * *

- Tested on: E2C(F2) six-finger (synthetic)
- Assay Overview: EMSA
Assay Readout: pKd
In plain terms, pKd is the concentration in mol/L turned into minus its base-10 logarithm.

Prompt: Consider the sequence GGGGCCGGAGCCGCAGTGG (double strand) [e2c-g] and give its measured pKd.
Completion: 7.60

* * *

- Test system: E2C-HS1(F2) (synthetic)
- Assay Overview: EMSA
- Experimental Parameters: ELISA binding good (Table 11)
Assay Readout: pKd
Keep in mind that pKd stands for -log10 of concentration in molar terms.

Prompt: Query (sequence): GGGGCCGGAG (double strand) [e2c-hs1] ; field requested: pKd
Completion: 7.35

* * *

- Tested System: pGGA (Zif268-C7 finger 2 variant) finger 2 helix -2 to 6 = SQRAHLER in Zif268-C7 (synthetic) (UniProt P08046)
- Assay Overview: EMSA
- Experimental Parameters: [7-9,26-28]
Assay Readout: Kd (nM)
Write the value in nM as a bare number.

Prompt: Value lookup for Kd; key = GGACGCTCCCGCGGGTTTTCCCGCGGGAGCGTCC [F2 site GGA]
Completion: 3

* * *

- Tested System: pmGCT (Zif268-C7 finger 2 variant) finger 2 helix -2 to 6 = STSGELVR in Zif268-C7 (synthetic) (UniProt P08046)
- Assay Overview: EMSA
- Experimental Parameters: [none]
Assay Readout: Kd (nM)
Report as a plain number; the unit nM is understood.

Prompt: Quick check: Kd of GGACGCAGCCGCGGGTTTTCCCGCGGCTGCGTCC [F2 site GCT] ?
Completion: 65

* * *

- System: C5(F2) three-finger protein (synthetic)
- Assay Overview: EMSA
Assay Readout: Kd (nM)
// return numeric value only (unit: nM, not printed)

Prompt: Look up Kd: GGAGGCGGGG (double strand) [c5]
Completion: 30

* * *

- Tested on: E2C(Sp1) six-finger (synthetic)
- Assay Overview: EMSA
Assay Readout: Kd (nM)
Quick reminder: number only, in nM, skip the unit.

Some sequences with known Kd results, for comparison:
{"Sequence Data": "GGGGCCGGAGCCGCAGTGA (double strand) [e2c-a]", "Result Value": 0.75}
{"Sequence Data": "AGTCTGAATGCCGCAGTGG (double strand) [e2c-muths1]", "Result Value": 65}
{"Sequence Data": "GGGGCCGGAAGTCTGAATG (double strand) [e2c-muths2]", "Result Value": 100}

Prompt: What value of Kd has been reported for the following sequence? GGGGCCGGAGCCGCAGTGG (double strand) [e2c-g]
Completion: 0.5
